From: patent US6858210B1

Field: Micropan score. Provide a value for each of the molecules that follow.
Test system: human β2GPI-dependent antiphospholipid antibody
Measurement protocol: Micropanning of mutant domain 1 phage, patient antibodies
Assay type: binding
Measurement conditions: Table 7B, antibody 6632

Which Micropan score reading was recorded for the molecule SE3: phage clone, domain 1 mutant T20I (protein) GRTCPKPDDLPFSTVVPLKIFYEPGEEITYSCKPGYVSRGGMRKFICPLTGLWPINTLKCTPRV ?
3

Lookup Dom1: phage displaying wild type (WT) domain 1 (protein) GRTCPKPDDLPFSTVVPLKTFYEPGEEITYSCKPGYVSRGGMRKFICPLTGLWPINTLKCTPRV
4

Lookup 2C3: phage clone, domain 1 mutant P54S (protein) GRTCPKPDDLPFSTVVPLKTFYEPGEEITYSCKPGYVSRGGMRKFICPLTGLWSINTLKCTPRV
3

Lookup 2D12: phage clone, domain 1 mutant F45L (protein) GRTCPKPDDLPFSTVVPLKTFYEPGEEITYSCKPGYVSRGGMRKLICPLTGLWPINTLKCTPRV
4

Lookup 3F12: phage clone, domain 1 multiple mutant L10I, P17Q, Y22C (protein) GRTCPKPDDIPFSTVVQLKTFCEPGEEITYSCKPGYVSRGGMRKFICPLTGLWPINTLKCTPRV
1

Lookup 3G1: phage clone, domain 1 multiple mutant R2W, S38T (protein) GWTCPKPDDLPFSTVVPLKTFYEPGEEITYSCKPGYVTRGGMRKFICPLTGLWPINTLKCTPRV
1

Lookup 4D1: phage clone, domain 1 multiple mutant N56T, R63G (protein) GRTCPKPDDLPFSTVVPLKTFYEPGEEITYSCKPGYVSRGGMRKFICPLTGLWPITTLKCTPGV
3

Lookup 3F6: phage clone, domain 1 mutant K44E (protein) GRTCPKPDDLPFSTVVPLKTFYEPGEEITYSCKPGYVSRGGMREFICPLTGLWPINTLKCTPRV
0 (0 symbolizing <10 colonies)
